# Assay Target: T1, RSV postfusion F (postF), subtype A (respiratory syncytial virus subtype A, UniProt P03420 26-513)
# T1 construct: also called Postfusion subtype A; F deltaFP
# Assay Method Text: BLI, IgG
Outcome Measure: pKd
Notebook: values listed as pKd are -log10 of the concentration (mol/L).

* ADI-14384 (antibody, V domains shown, full-length IgG; also called Ab 52) VH: QVQLQESGSGLVKPSQTLSLTCTVSGGSISSVGYSWSWIRQPPGKGLEWIGYIYHSGSPYYSPSLNSRVTISVDRSKNQFSLKLSSVTAADTAVYFCARVFFGGGGAFDIWGQGTTVTVSS VL: QPGLTQPPSVSVAPGQTARITCGGNNIGSKSVQWYQQKPGQAPVLVMYYDSDRPSGIPDRFSGSSSGNTATLTITRVEAGDEADYSCQVWDSVNVHPVIFGGGTKLTVL | 9.33
* ADI-22760 (antibody, V domains shown, full-length IgG; also called Ab 340) VH: EVQLVESGGGLVQPGRSLRLSCVASGFTFDDYAMHWVRQAPGKGLEWVSGINWNSGGIGYADSVKGRFTISRDNTKNSLYLQMNSLRAEDTALYYCAKDGSALMGYGVEVWGQGTTVTVSS VL: SYELTQPPSASGTPGQRVTISCSGSNSNIGNNYVYWYQQLPGTAPKLLIYRNNQWPSGVPDRFSASKSGTSASLAISGLRSEDEADYYCASWDDSLSALVFGGGTKLTVL | 8.92
* ADI-14389 (antibody, V domains shown, full-length IgG; also called Ab 56) VH: EVQLVESGGGLVKPGGSLRLSCAASGFTFINAWMAWVRQAPGKGPEWVGRIKSRADGGTTDYAAPVKGRFTISRDDSKNRLFLQMDSLKTDDTAVYFCTTGVRALRFYNGMDVWGQGTTVTVSS VL: ETTLTQSPSSLSASIGDRVTITCRAGQSISSFLNWYQQKPGKAPKLLIYAASTLQSGVPSRFSGSKSGTDFTLTISSLQPEDFATYYCQQSYHTFTFGPGTKVEIK | 7.64

From here, focus on the item given below.
Endpoint output: pKd of ADI-14368 (antibody, V domains shown, full-length IgG; also called Ab 36) VH: EVQLVESGGGLVKPGGSLRLSCAASGFTFINAWMSWVRQAPGKGLEWVGRIKSKADGGTTDDAAPVKGRFTISRDDSKNTLYLQMNSLKIEDTAVYYCATDVLPLYNWNLGWNFDLWGRGTLVTVSS VL: SYVLTQPPSVSVAPGKTARITCGGNNIADKSVHWYQQKPGQAPVLVMYYDTDRPSGIPERFSGFNSGNTATLTISRVEAGDEADYYCQVWDSSSDHVVFGGGTKVTVL . Value?
7.61
